The origin of these recorded values is patent US20090191187A1.

The entries below are paired with their reported ELISA (absorbance at 370 nm in relation to 2D8), mean.
Biological target: T1, recombinant soluble human type 1 IL-1 receptor (extracellular domain, glycosylated) (human, UniProt P14778 21-333, N-glycosylated (from SF9 insect cells); biotinylated in the ELISA of Examples 2 and 4c)
T1 construct: also called hIL-1R; rshIL-1R
T1 sequence: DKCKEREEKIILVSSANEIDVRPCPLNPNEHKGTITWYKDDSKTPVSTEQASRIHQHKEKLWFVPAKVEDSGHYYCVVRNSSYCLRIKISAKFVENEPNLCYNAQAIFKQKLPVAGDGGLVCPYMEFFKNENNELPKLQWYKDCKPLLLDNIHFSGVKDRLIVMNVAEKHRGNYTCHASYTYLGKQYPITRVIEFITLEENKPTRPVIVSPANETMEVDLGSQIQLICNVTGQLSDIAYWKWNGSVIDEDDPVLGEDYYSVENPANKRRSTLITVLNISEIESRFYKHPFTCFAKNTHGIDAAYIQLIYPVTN
Experiment: ELISA on biotinylated human IL-1R on streptavidin plates
Measured metric: ELISA (absorbance at 370 nm in relation to 2D8), mean

[[record]]
binder = "DEI5/8 (antibody, human IgG4, kappa, V domains shown, also called combination of HURDIVHv5 and HURDIVKv8) VH: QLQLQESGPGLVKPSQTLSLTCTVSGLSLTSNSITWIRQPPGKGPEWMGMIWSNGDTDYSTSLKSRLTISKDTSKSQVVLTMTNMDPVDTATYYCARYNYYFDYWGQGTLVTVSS VL: DIVLTQSPATLSLSPGERATLSCKASQNVDNRGVSYVHWYQQKPGQAPKLLIYKGSNLAFGVPSRFSGSGSGTDFTLTISSLQPEDFATYFCQQSKGHPDTFGAGTKLELKR"
measured = "1.7 relative to 2D8"

[[record]]
binder = "HUM2/2 (antibody, V domains shown, Humanized variant of 2D8) VH: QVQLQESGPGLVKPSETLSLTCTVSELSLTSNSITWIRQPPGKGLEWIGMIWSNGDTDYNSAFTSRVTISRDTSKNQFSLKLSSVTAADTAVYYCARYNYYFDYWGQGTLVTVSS VL: EIVLTQSPATLSLSPGERATLSCKASQNVDNRGVSYVHWYQQKPGQAPRLLIYKGSNLAFGVPARFSGSGSRTDFTLTISSLEPEDFATYYCQQSKGHPDTFGQGTKVEIK"
measured = "1.4 relative to 2D8"

[[record]]
binder = "DEI5/5 (antibody, V domains shown, also called combination of HURDIVHv5 and HURDIVKv5) VH: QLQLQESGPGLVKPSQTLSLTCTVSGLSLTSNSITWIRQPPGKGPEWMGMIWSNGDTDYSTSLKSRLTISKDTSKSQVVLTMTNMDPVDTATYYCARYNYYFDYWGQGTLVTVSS VL: DIVLTQSPATLSLSPGERATISCKASQNVDNRGVSYVHWYQQKPGQAPKLLIYKGSNLAFGVPARFSGSGSGTDFTLTISSLQPEDFATYYCQQSKGHPDTFGAGTKLELK"
measured = "3.3 relative to 2D8"

[[record]]
binder = "DEI2/9 (antibody, V domains shown, also called combination of HURDIVHv2 and HURDIVKv9) VH: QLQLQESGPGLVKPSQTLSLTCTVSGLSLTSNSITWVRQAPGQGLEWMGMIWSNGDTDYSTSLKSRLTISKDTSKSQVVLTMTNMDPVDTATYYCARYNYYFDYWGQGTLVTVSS VL: DIVLTQSPATLSLSPGERATLSCKASQNVDNRGVSYVHWYQQKPGQAPKLLIYKGSNLAFGVPSRFSGSGSGTDFTLTISSLQPEDFATYYCQQSKGHPDTFGAGTKLELK"
measured = "1.6 relative to 2D8"

[[record]]
binder = "DEI4/5 (antibody, V domains shown, also called combination of HURDIVHv4 and HURDIVKv5) VH: QLQLQESGPGLVKPSQTLSLTCTVSGLSLTSNSITWIRQPPGKGPEWMGMIWSNGDTDYNSAFTSRFTISRDNSKNTLYLQMNSLKTEDTAVYYCARYNYYFDYWGQGTLVTVSS VL: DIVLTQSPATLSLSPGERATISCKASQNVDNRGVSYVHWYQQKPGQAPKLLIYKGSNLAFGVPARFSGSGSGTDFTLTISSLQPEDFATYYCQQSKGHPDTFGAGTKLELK"
measured = "2.6 relative to 2D8"

[[record]]
binder = "DEI2/8 (antibody, V domains shown, also called combination of HURDIVHv2 and HURDIVKv8) VH: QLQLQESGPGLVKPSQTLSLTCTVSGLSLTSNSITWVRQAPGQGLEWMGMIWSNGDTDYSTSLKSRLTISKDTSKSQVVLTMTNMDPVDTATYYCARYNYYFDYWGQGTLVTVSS VL: DIVLTQSPATLSLSPGERATLSCKASQNVDNRGVSYVHWYQQKPGQAPKLLIYKGSNLAFGVPSRFSGSGSGTDFTLTISSLQPEDFATYFCQQSKGHPDTFGAGTKLELK"
measured = "2.1 relative to 2D8"

[[record]]
binder = "DEI1/8 (antibody, V domains shown) VH: QLQLQESGPGLVKPSQTLSLTCTVSGLSLTSNSITWVRQAPGQGLEWMGMIWSNGDTDYNSAFTSRFTISRDNSKNTLYLQMNSLKTEDTAVYYCARYNYYFDYWGQGTLVTVSS VL: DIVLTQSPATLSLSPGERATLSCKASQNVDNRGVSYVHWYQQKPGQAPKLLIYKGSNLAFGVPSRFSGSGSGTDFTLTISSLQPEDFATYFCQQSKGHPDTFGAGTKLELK"
measured = "2.2 relative to 2D8"

